Value source: ChEMBL document CHEMBL4689842

This listing pairs compounds with measured Population Healthy Nuclei (%).
Test system: U2OS
Assay: Multiplex assay against U2OS
Assay type: toxicity, cell-based
Conditions: human, 48 h, 10 µM, compound concentration 10 uM, replicate 2

[
  {
    "Given smiles": "Cc1nc(-c2ccc(-c3ccc(C(=O)N4CCc5cc6c(cc54)C4(CCN(C)CC4)CO6)cc3)c(C)c2)no1",
    "Population Healthy Nuclei (%)": 46
  },
  {
    "Given smiles": "CC(C)(O)CNc1ncc(-c2ccnc(Nc3ccnc(Cl)c3)n2)c(CC2CC2)n1",
    "Population Healthy Nuclei (%)": 23
  },
  {
    "Given smiles": "Cc1[nH]c(/C=C2\\C(=O)Nc3ccc(S(=O)(=O)N(C)c4cccc(Cl)c4)cc32)c(C)c1C(=O)N1CCN(C)CC1",
    "Population Healthy Nuclei (%)": 72
  },
  {
    "Given smiles": "Cc1c(-c2ccc(O)cc2)n(Cc2ccc(OCCN3CCCCCC3)cc2)c2ccc(O)cc12",
    "Population Healthy Nuclei (%)": 48
  },
  {
    "Given smiles": "C[C@@]1(C(=O)Nc2ccc(F)nc2)CCCN1c1nc(Nc2cc(C3CC3)n[nH]2)c2cccn2n1",
    "Population Healthy Nuclei (%)": 30
  },
  {
    "Given smiles": "COc1cc2nccc(Oc3ccc(NC(=O)Nc4cc(C)on4)c(Cl)c3)c2cc1OC.O",
    "Population Healthy Nuclei (%)": 67
  },
  {
    "Given smiles": "CC[C@H](C)C(=O)O[C@H]1C[C@@H](C)C=C2C=C[C@H](C)[C@H](CC[C@@H]3C[C@@H](O)CC(=O)O3)[C@H]21",
    "Population Healthy Nuclei (%)": 89
  },
  {
    "Given smiles": "COc1ncc(-c2ccc3nccc(-c4ccnnc4)c3c2)cc1NS(=O)(=O)c1ccc(F)cc1F",
    "Population Healthy Nuclei (%)": 19
  }
]
